Values were extracted from ChEMBL document CHEMBL4507326.

experimental_target: High affinity nerve growth factor receptor (Homo sapiens)
Sequence (P04629 whole entry): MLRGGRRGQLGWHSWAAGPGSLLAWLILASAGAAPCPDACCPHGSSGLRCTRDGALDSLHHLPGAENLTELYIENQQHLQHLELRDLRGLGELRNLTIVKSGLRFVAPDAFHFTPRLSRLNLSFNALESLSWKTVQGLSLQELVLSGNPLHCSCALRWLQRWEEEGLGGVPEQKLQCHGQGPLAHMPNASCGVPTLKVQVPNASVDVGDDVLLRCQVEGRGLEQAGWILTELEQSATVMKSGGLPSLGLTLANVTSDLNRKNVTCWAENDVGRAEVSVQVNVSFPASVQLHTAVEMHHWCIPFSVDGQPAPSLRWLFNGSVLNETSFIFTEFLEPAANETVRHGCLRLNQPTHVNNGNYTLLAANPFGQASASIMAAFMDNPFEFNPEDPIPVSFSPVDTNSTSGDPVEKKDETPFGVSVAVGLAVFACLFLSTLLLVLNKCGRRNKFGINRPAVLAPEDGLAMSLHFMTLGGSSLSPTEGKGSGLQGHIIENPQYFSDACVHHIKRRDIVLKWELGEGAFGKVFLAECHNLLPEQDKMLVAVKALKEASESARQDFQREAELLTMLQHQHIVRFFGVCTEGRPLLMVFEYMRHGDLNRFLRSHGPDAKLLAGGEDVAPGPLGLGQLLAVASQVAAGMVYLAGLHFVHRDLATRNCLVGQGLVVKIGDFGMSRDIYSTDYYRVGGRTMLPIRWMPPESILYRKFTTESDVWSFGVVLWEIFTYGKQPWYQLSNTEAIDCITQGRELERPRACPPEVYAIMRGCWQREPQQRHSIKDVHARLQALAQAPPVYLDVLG
measured_metric: pIC50
Kindly note that pIC50 refers to -log10 of the concentration in mol/L and answer with the value alone.

Provide the documented pIC50 with High affinity nerve growth factor receptor (Homo sapiens) as the system for CN1C(=O)[C@@H](N2CCc3c(nn(Cc4ccccc4)c3Br)C2=O)COc2ccccc21 [TP-030-2]
6.00

* * *

experimental_target: Serine/threonine-protein kinase pim-2 (Homo sapiens, UniProt Q9P1W9)
Sequence (Q9P1W9 whole entry): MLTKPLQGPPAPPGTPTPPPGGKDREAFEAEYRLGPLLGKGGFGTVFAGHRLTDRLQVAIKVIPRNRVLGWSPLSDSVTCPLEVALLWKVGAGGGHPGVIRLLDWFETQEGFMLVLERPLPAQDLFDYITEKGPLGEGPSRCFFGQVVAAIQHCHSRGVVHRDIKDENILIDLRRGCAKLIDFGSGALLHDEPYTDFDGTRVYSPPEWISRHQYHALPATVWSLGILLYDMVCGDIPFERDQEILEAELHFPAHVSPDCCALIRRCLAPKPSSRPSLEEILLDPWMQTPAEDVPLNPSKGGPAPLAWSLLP
measured_metric: pIC50
Kindly note that pIC50 refers to -log10 of the concentration in mol/L and answer with the value alone.

So what's the measured pIC50 for this one? CN1C(=O)[C@@H](N2CCc3c(nn(Cc4ccccc4)c3Br)C2=O)COc2ccccc21
6.00
